These entries and their values trace back to patent US9255101B2.

molecular target: human H4 receptor (Homo sapiens); test: biochemical
pKi: −log10 of the molar value. Structures can show the parent of a compound that is named as a salt.
measuredMetric: pKi

Query :: Name the reported pKi value associated with the molecule CN1CCC(OC2c3ccccc3CCn3cc(-c4ccc(Cl)cc4Cl)nc32)CC1 (stereo not drawn) [Example 71, oxalate]
Result :: > 7.52

Query :: Name the reported pKi value associated with the molecule CN1CCC(OC2c3ccccc3CCn3c(I)cnc32)CC1 (stereo not drawn)
Result :: > 6.52

Query :: Name the reported pKi value associated with the molecule CN1CCC(OC2c3ccccc3CCn3cc(-c4ncco4)nc32)CC1 (stereo not drawn) [Example 40, oxalate]
Result :: > 6.00

Query :: Name the reported pKi value associated with the molecule CN1CCC(OC2c3ccccc3CCn3cc(-c4ccc(S(C)(=O)=O)cc4)nc32)CC1 (stereo not drawn)
Result :: > 6.52

Query :: Name the reported pKi value associated with the molecule CN1CCC(OC2c3ccccc3CCn3cc(CCCOCc4ccccc4)nc32)CC1 (stereo not drawn) [Example 128, oxalate]
Result :: > 6.52

Query :: Name the reported pKi value associated with the molecule Cc1c(C=CC(C)(C)C)nc2n1CCc1ccccc1C2OC1CCN(C)CC1 (stereo not drawn)
Result :: > 7.52

Query :: Name the reported pKi value associated with the molecule Cc1cccc(-c2cn3c(n2)C(OC2CCN(C)CC2)c2ccccc2CC3)c1 (stereo not drawn)
Result :: > 6.52

Query :: Name the reported pKi value associated with the molecule CN1CCC(OC2c3ccccc3CCn3cc(-c4ccc(CN(C)C(=O)OC(C)(C)C)cc4)nc32)CC1 (stereo not drawn)
Result :: > 6.52

Query :: Name the reported pKi value associated with the molecule CN1CCC(OC2c3ccccc3CCn3cc(-c4ccc(C(=O)NCCO)cc4)nc32)CC1 (stereo not drawn)
Result :: > 6.00

Query :: Name the reported pKi value associated with the molecule Cc1c(-c2ccc(N3C(=O)OCC3Cc3ccccc3)cc2)nc2n1CCc1ccccc1C2OC1CCN(C)CC1 (stereo not drawn)
Result :: > 7.52

Query :: Name the reported pKi value associated with the molecule CN1CCC(OC2c3ccccc3CCn3cc(-c4cccc(F)c4)nc32)CC1 (stereo not drawn) [Example 68, oxalate]
Result :: > 7.52

Query :: Name the reported pKi value associated with the molecule Cc1ccccc1-c1nc2n(c1C)CCc1ccccc1C2OC1CCN(C)CC1 (stereo not drawn)
Result :: > 7.52

Query :: Name the reported pKi value associated with the molecule Cc1c(-c2ccccn2)nc2n1CCc1ccccc1C2OC1CCN(C)CC1 (stereo not drawn)
Result :: > 6.52

Query :: Name the reported pKi value associated with the molecule CN1CCC(OC2c3ccccc3CCn3cc(C4=CCCCCC4)nc32)CC1 (stereo not drawn)
Result :: > 7.52

Query :: Name the reported pKi value associated with the molecule Cc1c(-c2cccc(F)c2)nc2n1CCc1ccccc1C2OC1CCN(C)CC1 (stereo not drawn)
Result :: > 7.52

Query :: Name the reported pKi value associated with the molecule CN1CCC(OC2c3ccccc3CCn3cc(SCc4ccccc4)nc32)CC1 (stereo not drawn) [Example 67, oxalate]
Result :: > 6.52

Query :: Name the reported pKi value associated with the molecule CN1CCC(OC2c3ccccc3CCn3cc(C=CCOCc4ccccc4)nc32)CC1 (stereo not drawn) [Example 124, oxalate]
Result :: > 6.52

Query :: Name the reported pKi value associated with the molecule CCCc1nc2n(c1-c1ccccc1)CCc1ccccc1C2OC1CCN(C)CC1 (stereo not drawn)
Result :: > 6.52

Query :: Name the reported pKi value associated with the molecule CCCNC(=O)Nc1ccc(-c2cn3c(n2)C(OC2CCN(C)CC2)c2ccccc2CC3)cc1 (stereo not drawn)
Result :: > 6.52

Query :: Name the reported pKi value associated with the molecule Cc1c(C#CCCO)nc2n1CCc1ccccc1C2OC1CCN(C)CC1 (stereo not drawn)
Result :: > 6.52

Query :: Name the reported pKi value associated with the molecule CN1CCC(OC2c3ccccc3CCn3cc(-c4ccc(Br)cc4)nc32)CC1 (stereo not drawn)
Result :: > 7.52

Query :: Name the reported pKi value associated with the molecule CN1CCC(OC2c3ccccc3CCn3cc(SC4CCCCC4)nc32)CC1 (stereo not drawn) [Example 98, oxalate]
Result :: > 6.52

Query :: Name the reported pKi value associated with the molecule COC(=O)CSc1ccc(-c2nc3n(c2C)CCc2ccccc2C3OC2CCN(C)CC2)cc1 (stereo not drawn) [Example 165, oxalate]
Result :: > 7.52

Query :: Name the reported pKi value associated with the molecule Cc1c(CCC(C)(C)C)nc2n1CCc1ccccc1C2OC1CCN(C)CC1 (stereo not drawn)
Result :: > 7.52

Query :: Name the reported pKi value associated with the molecule CN1CCC(OC2c3ccccc3CCn3cc(CCC4CCCCC4)nc32)CC1 (stereo not drawn) [Example 95, oxalate]
Result :: > 7.52

Query :: Name the reported pKi value associated with the molecule Cc1c(-c2ccc(CCNC(=O)OC(C)(C)C)cc2)nc2n1CCc1ccccc1C2OC1CCN(C)CC1 (stereo not drawn)
Result :: > 7.52

Query :: Name the reported pKi value associated with the molecule CCCNC(=O)c1nc2n(c1C)CCc1ccccc1C2OC1CCN(C)CC1 (stereo not drawn)
Result :: > 6.00

###

Assign Ki to each entry below.
target: UniProt Q9H3N8; experiment: biochemical
Where a name gives a salt, the structure may show the parent alone.

Query :: Name the reported Ki value associated with the molecule CN1CCC(OC2c3ccccc3CCn3cc(CCCc4ccccc4)nc32)CC1 (centres unmarked) [Example 87, oxalate]
Result :: < 0.03 µM

Query :: Name the reported Ki value associated with the molecule CN1CCC(OC2c3ccccc3CCn3c2nc(-c2ccc(Br)cc2)c3Cl)CC1 (centres unmarked)
Result :: < 0.03 µM

Query :: Name the reported Ki value associated with the molecule CN1CCC(OC2c3ccccc3CCn3cc(C=CCc4ccccc4)nc32)CC1 (centres unmarked) [Example 76, oxalate]
Result :: < 0.03 µM

Query :: Name the reported Ki value associated with the molecule Cc1c(-c2ccc(NC(=O)OC(C)(C)C)cc2)nc2n1CCc1ccccc1C2OC1CCN(C)CC1 (centres unmarked)
Result :: < 0.03 µM

Query :: Name the reported Ki value associated with the molecule CCCCCc1ccc(-c2cn3c(n2)C(OC2CCN(C)CC2)c2ccccc2CC3)cc1 (centres unmarked)
Result :: < 0.03 µM

Query :: Name the reported Ki value associated with the molecule CN1CCC(OC2c3ccccc3CCn3cc(C=Cc4cccs4)nc32)CC1 (centres unmarked)
Result :: < 0.03 µM

Query :: Name the reported Ki value associated with the molecule CN1CCC(OC2c3ccccc3CCn3cc(-c4ccc(CCNC(=O)OC(C)(C)C)cc4)nc32)CC1 (centres unmarked)
Result :: < 0.3 µM

Query :: Name the reported Ki value associated with the molecule Cc1c(C(=O)c2ccccc2)nc2n1CCc1ccccc1C2OC1CCN(C)CC1.O=CO (centres unmarked) [Example 202, formic acid salt]
Result :: < 1 µM

###

Tick TRUE if melting point is 90 °C or greater. Tick FALSE if melting point is less than 90 °C.

Query :: Has C=C(C)Cc1nc2n(c1CC(=C)C)CCc1ccccc1C2OC1CCN(C)CC1.O=C(O)C(=O)O.O=C(O)C(=O)O (centres unmarked) a recorded melting point greater than or equal to 90 °C?
Result :: FALSE

Query :: Has CN1CC(COC2c3ccccc3CCn3cc(I)nc32)C1 (centres unmarked) a recorded melting point greater than or equal to 90 °C?
Result :: TRUE

Query :: Has Cc1c(-c2ccc(C=CC(=O)OC(C)(C)C)cc2)nc2n1CCc1ccccc1C2OC1CCN(C)CC1 (centres unmarked) a recorded melting point greater than or equal to 90 °C?
Result :: TRUE

Query :: Has Cc1c(C(O)c2ccccc2)nc2n1CCc1ccccc1C2OC1CCN(C)CC1.O=CO (centres unmarked) a recorded melting point greater than or equal to 90 °C?
Result :: FALSE

Query :: Has COc1cccc(-c2cccc3c2CCn2cc(-c4ccccc4)nc2C3OC2CCN(C)CC2)c1 (centres unmarked) a recorded melting point greater than or equal to 90 °C?
Result :: TRUE

Query :: Has CCCNC(=O)Nc1ccc(-c2cn3c(n2)C(OC2CCN(C)CC2)c2ccccc2CC3)cc1 (centres unmarked) a recorded melting point greater than or equal to 90 °C?
Result :: TRUE

Query :: Has Cc1c(-c2ccc(Cl)cc2)nc2n1CCc1ccccc1C2OC1CCN(C)CC1 (centres unmarked) a recorded melting point greater than or equal to 90 °C?
Result :: TRUE

Query :: Has C=CCCc1cccc2c1CCn1cc(-c3ccccc3)nc1C2OC1CCN(C)CC1.O=C(O)C(=O)O (centres unmarked) a recorded melting point greater than or equal to 90 °C?
Result :: TRUE

###

biological target: human H4 receptor (Homo sapiens, UniProt Q9H3N8); experiment: biochemical;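 note: radioligand displacement of a [3H]-labelled ligand from membranes of CHO cells stably expressing human H4 receptor, bound radioactivity counted on filters by liquid scintillation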
Sequence (Q9H3N8 whole entry): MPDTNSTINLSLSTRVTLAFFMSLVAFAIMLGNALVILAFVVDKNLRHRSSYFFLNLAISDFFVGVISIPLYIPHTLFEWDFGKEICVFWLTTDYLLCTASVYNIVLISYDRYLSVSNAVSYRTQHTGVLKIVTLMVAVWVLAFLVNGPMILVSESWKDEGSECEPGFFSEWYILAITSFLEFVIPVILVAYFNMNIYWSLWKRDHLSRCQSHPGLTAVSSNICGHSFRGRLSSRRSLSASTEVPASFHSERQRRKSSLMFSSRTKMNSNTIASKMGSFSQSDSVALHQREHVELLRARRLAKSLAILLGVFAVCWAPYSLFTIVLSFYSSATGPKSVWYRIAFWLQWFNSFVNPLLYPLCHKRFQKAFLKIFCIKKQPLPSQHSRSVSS
Counter-ions that a name gives are not always drawn.
Assign Ki to each entry below.

Query :: Name the reported Ki value associated with the compound CN1CCC(OC2c3ccccc3CCn3cc(CCCC4CCCC4)nc32)CC1 (stereo not drawn)
Result :: < 30 nM

Query :: Name the reported Ki value associated with the compound CN1CCC(OC2c3ccccc3CCn3c2nc(-c2ccccc2)c3C=O)CC1 (stereo not drawn)
Result :: < 300 nM

Query :: Name the reported Ki value associated with the compound CN1CCC(OC2c3ccccc3CCn3cc(C4=CCSCC4)nc32)CC1 (stereo not drawn)
Result :: < 300 nM

Query :: Name the reported Ki value associated with the compound Cc1c(-c2ccc(C3=CCCCC3)cc2)nc2n1CCc1ccccc1C2OC1CCN(C)CC1 (stereo not drawn)
Result :: < 30 nM

Query :: Name the reported Ki value associated with the compound Cc1c(-c2ccc(N3CCN(C(C)(C)C)C3=O)cc2)nc2n1CCc1ccccc1C2OC1CCN(C)CC1 (stereo not drawn)
Result :: < 30 nM

Query :: Name the reported Ki value associated with the compound Cc1ccc(-c2nc3n(c2C)CCc2ccccc2C3OC2CCN(C)CC2)cc1 (stereo not drawn)
Result :: < 30 nM

Query :: Name the reported Ki value associated with the compound Cc1c(-c2ccc(Br)cc2)nc2n1CCc1ccccc1C2OC1CCN(C)CC1 (stereo not drawn)
Result :: < 30 nM

Query :: Name the reported Ki value associated with the compound CN1CCC(OC2c3ccccc3CCn3cc(C=CC4CCCCC4)nc32)CC1 (stereo not drawn)
Result :: < 300 nM

Query :: Name the reported Ki value associated with the compound CN1CCC(OC2c3ccccc3CCn3cc(-c4ccc(CC#N)cc4)nc32)CC1 (stereo not drawn) [Example 33, oxalate]
Result :: < 300 nM

Query :: Name the reported Ki value associated with the compound Cc1ccc(-c2cn3c(n2)C(OC2CCN(C)CC2)c2ccccc2CC3)cc1 (stereo not drawn)
Result :: < 30 nM

Query :: Name the reported Ki value associated with the compound CN1CCC(OC2c3cccc(Cl)c3CCn3cc(I)nc32)CC1 (stereo not drawn)
Result :: < 300 nM

Query :: Name the reported Ki value associated with the compound CCc1c(-c2ccccc2)nc2n1CCc1ccccc1C2OC1CCN(C)CC1 (stereo not drawn) [Example 120, oxalate]
Result :: < 30 nM
